- assay system: SCRIB_1, Q14160
- Sequence (Q14160 718-814): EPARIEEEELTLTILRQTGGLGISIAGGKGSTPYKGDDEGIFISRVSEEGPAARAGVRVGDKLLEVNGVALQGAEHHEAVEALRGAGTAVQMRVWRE
- test details: holdup assay
- Parameters: key: below the threshold = too weak to quantify, mostly under pKd 3.1 to 4
- measurement parameters: plain residues with an end cap or a label only (N-terminal biotin on a linker: ado-ado)
measurement type: pKd

- binder: "SKENVQETQI [LRRC4B, Q9NT99]"
  endpoint result: 4.93
- binder: "RRRESYSTTV [EVI5, O60447]"
  endpoint result: 4.57
- binder: "QHKTQLQTLI [BPIFA2, Q96DR5]"
  endpoint result: 4.02
